tested on: Escherichia coli; conditions: Concentration 20 uM; ASSAY_TEST Inhibition of Bacterial Growth; detection method Absorption (OD600); MEDIA CAMHB; plate type 384well; NBS; CORNING #3640; time 18 hr
Description: Antibacterial activity against Escherichia coli ATCC 25922 (CO-ADD:GN_001); MIC in CAMBH media using NBS plates, by OD(600)
Results with a measured potency or affinity are listed apart.
Attribute: Inhibition
Express the result in % but write the number alone.

Answered examples (6):
>  <MOLECULE>
N#Cc1ccc(-c2ccc(OCC(N)=O)cc2)cc1

>  <METRIC>
Inhibition

>  <TEST RESULT>
-3.93

$$$$
>  <MOLECULE>
Cc1cccc(NC(=O)c2cc(S(=O)(=O)N(C)c3ccc(F)cc3)ccc2Cl)n1

>  <METRIC>
Inhibition

>  <TEST RESULT>
7.88

$$$$
>  <MOLECULE>
Cl.O[C@@H](c1cc(C(F)(F)F)nc2c(C(F)(F)F)cccc12)[C@H]1CCCCN1

>  <METRIC>
Inhibition

>  <TEST RESULT>
15.86

$$$$
>  <MOLECULE>
CC1=Nc2ccc(Cl)cc2C(O)(c2ccc(C)cc2)N1CCN1CCCCC1 (stereo unspecified)

>  <METRIC>
Inhibition

>  <TEST RESULT>
11.5

$$$$
>  <MOLECULE>
O=C(C(Cc1c[nH]c2ccccc12)NS(=O)(=O)c1ccc(Cl)cc1)N1CCCCC1 (stereo unspecified)

>  <METRIC>
Inhibition

>  <TEST RESULT>
4.17

$$$$
>  <MOLECULE>
COc1ccc(-c2cnc3ccc(NCc4ccc(S(N)(=O)=O)cc4)nn23)cn1

>  <METRIC>
Inhibition

>  <TEST RESULT>
10.16

$$$$

Observed Inhibition, Escherichia coli, `CCCCN(CCCC)c1c(C#N)cc(S(=O)(=O)Nc2ccccc2)cc1C#N` : -2.29

Observed Inhibition, Escherichia coli, `CN1CCN(c2nccc3[nH]c(-c4cccc(F)c4)cc23)CC1` : 3.68

Observed Inhibition, Escherichia coli, CCc1cc(=O)n(C)c(SC(C)C(=O)Nc2ccc(F)cc2)n1 (stereo unspecified) : 4.12

Observed Inhibition, Escherichia coli, `CC(C)(C)c1cc(C(=O)Nc2cccnc2)cc(C(=O)Nc2cccnc2)c1` : 6.88

Observed Inhibition, Escherichia coli, `c1ccc(Oc2ccc(-c3cncc(-c4ccc5[nH]ccc5c4)n3)cc2)cc1` : 11.21

Observed Inhibition, Escherichia coli, `COc1cccc(NC(=O)c2c(NC(=O)c3cccnc3)sc3c2CCC3)c1` : 4.69

Observed Inhibition, Escherichia coli, `Nc1ncnc2c1c(Cc1cccc3ccccc13)nn2CC1CCNCC1` : -7.67

Observed Inhibition, Escherichia coli, `O=C(NCc1cc(Cl)cc(Cl)c1)c1c(C(F)(F)F)nc2ccccn12` : 10.43

Observed Inhibition, Escherichia coli, `CCCCOC(=O)Nc1cc2nc(C3CCCCC3)[nH]c2cc1N1CCCC1` : -0.47

Observed Inhibition, Escherichia coli, `O=C(NCc1ccco1)N1CCN(Cc2ccc(Cl)s2)CC1` : -3.38

Observed Inhibition, Escherichia coli, `C[C@H](c1ccc2c(c1)CCCC2)N(C)c1ncc2c(N)nc(N)nc2n1` : 11.2

Observed Inhibition, Escherichia coli, `Cc1ccc(Oc2ccc(NC(=O)CNc3ccccc3N3CCCC3=O)cc2)cc1` : 6.72

Observed Inhibition, Escherichia coli, `Cl.Cl.Cl.NS(=O)(=O)c1cncc(-c2ccc3nccc(-c4cn[nH]c4)c3n2)c1` : 6.62

Observed Inhibition, Escherichia coli, COCC(C)NC(=O)CSc1ncnc2sc(-c3ccccc3)cc12 (stereo unspecified) : 9.3

Observed Inhibition, Escherichia coli, `CCc1nc2ccc(C(=O)NCc3ccc4c(c3)OCO4)cn2c1N(C)Cc1cccs1` : -1.74

* * *

test system: Staphylococcus aureus; details: Concentration 20 uM; ASSAY_TEST Inhibition of Bacterial Growth; detection method Absorption (OD600); MEDIA CAMHB; plate type 384well; NBS; CORNING #3640; time 18 hr
Description: Antibacterial activity against Staphylococcus aureus MRSA ATCC 43300 (CO-ADD:GP_020); MIC in CAMBH media, using NBS plates, by OD(600)
Entries with a potency or affinity are not part of this list.
METRIC: Inhibition (%)
Express the result in % but write the number alone.

Answered examples (5):
>  <COMPOUND>
Cc1ccc(C(=O)Nc2ccc(S(=O)(=O)O)c3cc(S(=O)(=O)O)cc(S(=O)(=O)O)c23)cc1NC(=O)c1cccc(NC(=O)Nc2cccc(C(=O)Nc3cc(C(=O)Nc4ccc(S(=O)(=O)O)c5cc(S(=O)(=O)O)cc(S(=O)(=O)O)c45)ccc3C)c2)c1

>  <TESTED SYSTEM>
Staphylococcus aureus

>  <Inhibition, %>
23.13

$$$$
>  <COMPOUND>
O=C(NCCc1ccn(-c2ccccc2)n1)C1CCCCC1

>  <TESTED SYSTEM>
Staphylococcus aureus

>  <Inhibition, %>
6.55

$$$$
>  <COMPOUND>
CCn1cnc2c(Nc3cc(F)cc(F)c3)nc(C#N)nc21

>  <TESTED SYSTEM>
Staphylococcus aureus

>  <Inhibition, %>
36.21

$$$$
>  <COMPOUND>
Cc1cc(OCC(=O)Nc2ccc(C(C)C)cc2)n(C)c(=O)c1C#N

>  <TESTED SYSTEM>
Staphylococcus aureus

>  <Inhibition, %>
7.07

$$$$
>  <COMPOUND>
Cc1cc(NC(=O)c2ccc(S(=O)(=O)N(Cc3ccccc3)C(C)C)cc2)no1

>  <TESTED SYSTEM>
Staphylococcus aureus

>  <Inhibition, %>
10.98

$$$$

Measured Inhibition, `c1ccc2c(c1)CN(CC1CC1)CC1(CCN(Cc3c[nH]c4cnccc34)CC1)O2` : 14.8

Measured Inhibition, `COc1ccc(-c2onc(C(F)(F)F)c2-c2ccc(Cl)cc2)c(O)c1` : 22.97

Measured Inhibition, `Cc1cc(C(=O)Nc2cnn(Cc3ccc(Cl)cc3Cl)c2)no1` : 4.82

* * *

test system: Escherichia coli; details: Concentration 20 uM; ASSAY_TEST Inhibition of Bacterial Growth; detection method Absorption (OD600); MEDIA CAMHB; plate type 384well; NBS; CORNING #3640; time 18 hr
Entries with a potency or affinity are not part of this list.
METRIC: Inhibition (%)
Express the result in % but write the number alone.

Measured Inhibition, CC(C)C(C(=O)Nc1ccc(S(=O)(=O)N(C)C)cc1)c1ccc(Cl)cc1 (configuration not stated) : 11.91

Measured Inhibition, `NCC(=O)N1CCn2c(nc(-c3ccccc3)c2Nc2ccc3c(c2)OCO3)C1` : -1.15

Measured Inhibition, `OCCc1ccc(Nc2nccc(-c3nnc4ccccn34)n2)cc1` : 6.52

Measured Inhibition, `Nc1ncnc2c1ncn2C[C@@H](O)[C@@H](O)C(=O)O` : 8.78

Measured Inhibition, `N#Cc1nc(-c2ccccc2F)oc1NCCc1ccccc1` : 2.58

Measured Inhibition, CS(=O)(=O)c1ccc(C(=O)N(CC2CCCO2)c2nc3ccccc3s2)cc1[N+](=O)[O-] (configuration not stated) : 7.54

Measured Inhibition, `CCOc1ccc2cc(-c3nn(C(C)(C)C)c(N)c3C(N)=O)cnc2c1.Cl` : 7.93

* * *

test system: Escherichia coli; settings: Concentration 20 uM; ASSAY_TEST Inhibition of Bacterial Growth; detection method Absorption (OD600); MEDIA CAMHB; plate type 384well; NBS; CORNING #3640; time 18 hr
Measured potencies and affinities stand elsewhere.
Attribute: Inhibition
Express the result in % but write the number alone.

Answered examples (4):
>  <COMPOUND>
CN1CCCC1CCO[C@](C)(c1ccccc1)c1ccc(Cl)cc1.O=C(O)/C=C/C(=O)O (stereo partly drawn)

>  <Inhibition / %>
10.75

$$$$
>  <COMPOUND>
CCN(CC)CCCCCCNc1cc(OC)cc2c(C)ccnc12.Cc1ccc(S(=O)(=O)O)cc1

>  <Inhibition / %>
7.48

$$$$
>  <COMPOUND>
CS(=O)(=O)N1CCC(Cn2nc(Cc3cccc4ccccc34)c3c(N)ncnc32)CC1

>  <Inhibition / %>
3.3

$$$$
>  <COMPOUND>
Cc1ccc2nc(C)c(-c3ccn(Cc4ccccc4)n3)n2c1

>  <Inhibition / %>
10.25

$$$$

Measured Inhibition, NCCC(O)C(=O)N[C@@H]1C[C@H](N)[C@@H](OC2O[C@H](CN)[C@@H](O)[C@H](O)[C@H]2O)[C@H](O)C1OC1O[C@H](CO)[C@@H](O)[C@H](N)[C@H]1O.O=S(=O)(O)O.O=S(=O)(O)O (stereo partly drawn) : 11.24

Measured Inhibition, `Cc1cc(Cl)c(S(=O)(=O)N2CCCC2)cc1OCC(=O)NC1CCCCC1` : 0.73

Measured Inhibition, `c1ccc(Oc2ccc(-c3cc(C4CCOCC4)[nH]n3)cc2)cc1` : 11.25

Measured Inhibition, `CN1CCN(S(=O)(=O)c2ccc(-c3ccc4c(Nc5ncc(Cl)cn5)ccnc4c3)cc2)CC1` : 2.97

* * *

tested on: Staphylococcus aureus; conditions: Concentration 20 uM; ASSAY_TEST Inhibition of Bacterial Growth; detection method Absorption (OD600); MEDIA CAMHB; plate type 384well; NBS; CORNING #3640; time 18 hr
Measured potencies and affinities stand elsewhere.
Attribute: Inhibition
Express the result in % but write the number alone.

Answered examples (3):
>  <COMPOUND>
N#Cc1ccc(-c2cnc(N)c(-c3ccc(C(N)=O)cc3)n2)cc1

>  <TESTED SYSTEM>
Staphylococcus aureus

>  <UNITS LABEL>
%

>  <Inhibition>
16.7

$$$$
>  <COMPOUND>
Cc1cc(NCC(C)C)c2[nH]nc(-c3ccccc3)c2n1

>  <TESTED SYSTEM>
Staphylococcus aureus

>  <UNITS LABEL>
%

>  <Inhibition>
14.44

$$$$
>  <COMPOUND>
O=C(C1CCN(c2nnnn2-c2ccccc2)CC1)N1CCc2ccccc2C1

>  <TESTED SYSTEM>
Staphylococcus aureus

>  <UNITS LABEL>
%

>  <Inhibition>
18.44

$$$$

Measured Inhibition, `O=C(NCc1cc(Cl)cc(Cl)c1)c1c(C(F)(F)F)nc2ccccn12` : 22.39

Measured Inhibition, CNC(=O)c1nn(C)c2c1C(C)(C)Cc1cnc(Nc3ccc(N4CCN(C)CC4)cc3)nc1-2 [MILCICLIB] : 15.75
